Reference source: the DeepSol protein solubility set

- Protocol details: soluble on expression in E. coli; label from the status in PepcDB or PDB records
Recorded endpoint: soluble on expression in E. coli

sequence_content=MDLFDLIFPPPPQSPSKLHPTQNHILPPEPLNRDFGDTRKNHKKAQPRRTTKAPSTSSPTIHDRQTPPRPTTPKSPTEKLLPIYHKFADGTEVVNPAAYAQRGFGWVKQNNTARVSWAKWAQSTKKCDDDIYGLKWIEERYPNWRDSNFRIRERRRSRSRSPQLSDNGSEDISIYLGRANSSSPNPTATGSETSYGSPTDAIYIPRNY recorded_result="not soluble"
sequence_content=EVVVTGMQKMDKRLFTGAATKLDAEGVKLNGMADISRGLEGRAAGVSVQNVSGTFGTAPKIRVRGATSIYGSSKPLWVVDGVIMEDAVEVSADQLSSGDAETLISSAIAGLNADDIESFQILKDGSATSIYGARAMAGVIVVTTKKGK recorded_result="not soluble"
sequence_content=MGSDKIHHHHHHMSDKKYNVDEGEIAKFSRIADKWWDKSGEFKTLHDINPLRLDYIDGHADLCGKRVLDVGCGGGILAESMARRGAAFVKGIDMAEQSLETARLHAALNNVADIEYECIRVEDLAEAEPHSFDVVTCMEMMEHVPDPAAIVRACAKLVKPDGMVFFSTINKNPKSYLHLIVAAEYLLKFVPKGTHDWKKFIVPAELARMCRQAGLDVADTKGMTYHVLSQTYALCDSTDVNYMFACRPAF recorded_result="not soluble"

###

- Protocol details: soluble on expression in E. coli; label from the status in PepcDB or PDB records
Recorded endpoint: soluble on expression in E. coli

sequence_content=MKETCDLLAFGAHPDDVEIGMGGTIAKYVRRGYRIVICDLTQAELSSNGTVDERQREAAEAARRLGVSERFNLGLPDRGLYVEEEAIRQIAAVIRRYRPRLVFAPYWEDRHPDHGRCARLVEEAVFSAGIRRYGAGELGDAHRVRAVYYYMINAFCRPHFLIDISETINDKLDSLRAYESQFQKRPGSVDTPLTNGYIEMIESRERWFGQQIGAAYAEGFLTKTPIHLSNLFEEER recorded_result=soluble
sequence_content=MTLVIGLTGGIASGKSTVANMLIEKGITVIDADIIAKQAVEKGMPAYRQIIDEFGEDILLSNGDIDRKKLGALVFTNEQKRLALNAIVHPAVRQEMLNRRDEAVANREAFVVLDIPLLFESKLESLVDKIIVVSVTKELQLERLMKRNQLTEEEAVSRIRSQMPLEEKTARADQVIDNSGTLEETKRQLDEIMNSWALEHHHHHH recorded_result=soluble
sequence_content=YCTLADLQLAIPQATLTQLTNDVPADYSVAQEPNLAVVEEAVRQAEELVDAHLRGRYVLPLVTVPSVIKDNTVNLARHWLYARRPEGNELPDAVTRTYKAALQILESIRDGKLHIGVPTGEAAPEPGEVRVRARRQLFSASM recorded_result="not soluble"
sequence_content=MGSDKIHHHHHHMKKGFSALVEHNGYRVLVDTGTDGKILLNNMEGLGIDPNSIDALFLTHGHYDHTGGIAELLKARKDTLDVYAHPRIFEKRIALKPKRRDIGIPFSQEELESLGAIFHLNDKALEFLPGLISSGEIKRETWDRAVGYLLNNEKDPVRDDMALLIDLGDKIAVITGCGHSGILNIAKHAVEISKKPIRALIGGFHLRGASITILEDAVRGLKELNVEMLYPGHCTGIDEYAYLRMKLKAEHLNVGKEIVIK recorded_result="not soluble"
